Measured IC50 of individual entries
- System: Staphylococcus aureus biofilm formation
- assayExplanation: microbe, parasite or virus in culture
- settings: Staphylococcus aureus, 24 h, read-out: BP50
Please state the figure in mM; there is no need to write the unit.

The examples below pair each entry with its known result.
[[record]]
compound = "O=C(O)c1cc(O)c(O)c(O)c1"
systemundertest = "Staphylococcus aureus biofilm formation"
quantitykind = "IC50"
unitlabel = "mM"
experimentalvalue = 17.3

[[record]]
compound = "CCOc1ccc(C(=O)O)cc1"
systemundertest = "Staphylococcus aureus biofilm formation"
quantitykind = "IC50"
unitlabel = "mM"
experimentalvalue = 1.6

[[record]]
compound = "O=C(O)c1cccc(O)c1O [pyrocatechuic acid, 2,3-dihydroxybenzoic acid]"
systemundertest = "Staphylococcus aureus biofilm formation"
quantitykind = "IC50"
unitlabel = "mM"
experimentalvalue = 4.8

[[record]]
compound = "CCOC(=O)c1cc(O)c(O)c(O)c1 [ethyl gallate]"
systemundertest = "Staphylococcus aureus biofilm formation"
quantitykind = "IC50"
unitlabel = "mM"
experimentalvalue = 6.7

[[record]]
compound = "O=C(O)c1cccc(O)c1 [3-hydroxybenzoic acid]"
systemundertest = "Staphylococcus aureus biofilm formation"
quantitykind = "IC50"
unitlabel = "mM"
experimentalvalue = 9.6


QUERY: # query: IC50 of entry O=C(O)c1ccc(O)c(O)c1 [protocatechuic acid, 3,4-dihydroxybenzoic acid]
RESULT: 14.4

QUERY: # query: IC50 of entry O=C(O)c1ccccc1O [salicylic acid, 2-hydroxybenzoic acid]
RESULT: 38.5

QUERY: # query: IC50 of entry CCCOC(=O)c1cc(O)c(O)c(O)c1 [propyl gallate]
RESULT: 2.9

QUERY: # query: IC50 of entry COC(=O)c1cc(O)c(O)c(O)c1 [methyl gallate]
RESULT: 0.82

QUERY: # query: IC50 of entry O=C(O)c1cc(O)ccc1O [gentisic acid, 2,5-dihydroxybenzoic acid]
RESULT: 9.2

QUERY: # query: IC50 of entry O=C(O)c1ccc(O)cc1 [p-hydroxybenzoic acid, 4-hydroxybenzoic acid]
RESULT: 8
